system: SK-MEL-28; assay: The concentration of compound required for 50% cell growth inhibition which was expressed in logarithmic form was measured on SK-MEL-28 cell lines of Melanoma; assay type: functional; settings: Homo sapiens
MEASUREMENT_NAME: GI50 (nM)
# value in nM; strip the unit string

Here are 3 compounds together with their reported answers.
{"SMILES_TEXT": "CN(CCCN)CCCNc1ccc2ncn3c4ccccc4c(=O)c1c23", "TGT": "SK-MEL-28", "MEASUREMENT_NAME": "GI50", "UNITS_LABEL": "nM", "RECORDED_RESULT": 1550}
{"SMILES_TEXT": "CN(CCCNc1ccc2ncn3c4ccccc4c(=O)c1c23)CCCNc1ccc2ncn3c4ccc(C(C)(C)C)cc4c(=O)c1c23", "TGT": "SK-MEL-28", "MEASUREMENT_NAME": "GI50", "UNITS_LABEL": "nM", "RECORDED_RESULT": 1820}
{"SMILES_TEXT": "CN(CCCNc1ccc2ncn3c4ccccc4c(=O)c1c23)CCCNc1ccc2nnn3c4ccccc4c(=O)c1c23", "TGT": "SK-MEL-28", "MEASUREMENT_NAME": "GI50", "UNITS_LABEL": "nM", "RECORDED_RESULT": 44700}

# next compound below
Lab request: please report GI50 under test system SK-MEL-28 for CN(CCNc1ccc2ncn3c4ccccc4c(=O)c1c23)CCNc1ccc2ncn3c4ccccc4c(=O)c1c23 2820

###

Recorded GI50 for the following molecules
test system: RPMI-8226; experiment: The concentration of compound required for 50% cell growth inhibition which was expressed in logarithmic form was measured on RPMI-8226 cell lines of Leukemia; type: functional; settings: Homo sapiens
# value in µM; strip the unit string

Here are 3 molecules together with their reported answers.
{"SMILES_TEXT": "CN(CCCNc1ccc2ncn3c4ccccc4c(=O)c1c23)CCCNc1ccc2ncn3c4ccc(C(C)(C)C)cc4c(=O)c1c23", "TGT": "RPMI-8226", "UNITS_LABEL": "µM", "GI50": 2.88}
{"SMILES_TEXT": "CN(CCCNc1ccc2ncn3c4ccccc4c(=O)c1c23)CCCNc1ccc2ncn3c4ccccc4c(=O)c1c23", "TGT": "RPMI-8226", "UNITS_LABEL": "µM", "GI50": 0.145}
{"SMILES_TEXT": "CN(CCNc1ccc2ncn3c4ccccc4c(=O)c1c23)CCNc1ccc2ncn3c4ccccc4c(=O)c1c23", "TGT": "RPMI-8226", "UNITS_LABEL": "µM", "GI50": 28.2}

# next molecule below
Returns the measured GI50 for the input molecule. Input: CN(CCCN)CCCNc1ccc2ncn3c4ccccc4c(=O)c1c23 1.15

###

tested on: HCT-15; assay: The concentration of compound required for 50% cell growth inhibition which was expressed in logarithmic form was measured on HCT-15 cell lines of colon cancer; type: functional; settings: Homo sapiens
Recorded GI50 for the following compounds

Here are 2 compounds together with their reported answers.
{"SMILES_TEXT": "CN(CCCN)CCCNc1ccc2ncn3c4ccccc4c(=O)c1c23", "TGT": "HCT-15", "GI50": "3470 nM"}
{"SMILES_TEXT": "CN(CCNc1ccc2ncn3c4ccccc4c(=O)c1c23)CCNc1ccc2ncn3c4ccccc4c(=O)c1c23", "TGT": "HCT-15", "GI50": "27500 nM"}

Returns the measured GI50 for the input compound. Input: CN(CCCNc1ccc2ncn3c4ccccc4c(=O)c1c23)CCCNc1ccc2ncn3c4ccccc4c(=O)c1c23 316 nM

Same question for CN(CCCNc1ccc2ncn3c4ccccc4c(=O)c1c23)CCCNc1ccc2ncn3c4ccc(C(C)(C)C)cc4c(=O)c1c23 please. 1780 nM

Same question for CN(CCCNc1ccc2ncn3c4ccccc4c(=O)c1c23)CCCNc1ccc2nnn3c4ccccc4c(=O)c1c23 please. 47.9 nM

The measurements presented in this section are drawn from ChEMBL document CHEMBL1128499.
